system: OVCAR-4; experiment: NCI tumour cell line growth inhibition, 48 h
Calls of active or inactive are those of the source. Rule as the data show it: active = GI50 up to about 1.1 µM and inactive = higher.
Entries annotated with measured GI50

Reference set, count: 3
| compound | GI50 |
| --- | --- |
| CCCCCCCCCCCC1=C(O)C(=O)C(CC2=C(O)C(=O)C(CCCCCCCCCCC)=C(O)C2=O)=C(O)C1=O | 40.7 µM (inactive) |
| O=C1Nc2ccccc2/C1=N/Nc1nc(-c2cccc([N+](=O)[O-])c2)cs1 | 21 µM (inactive) |
| COc1ccc(N2C(=O)c3c(c4[nH]c5ccc(OC)cc5c4c4ccc(C(C)(C)C)cc34)C2=O)cc1 | > 100 µM (inactive) |

Given the compound CN(C)c1nc(N)c(C#N)c(C#N)c1C#N , what is its reported GI50? > 10 µM (inactive)

Any idea what GI50 was measured for Sc1nnc(CNc2ccc(-c3nnc(S)n3-c3ccc(Cl)cc3)cc2)n1-c1ccc(Cl)cc1 ? 29.5 µM (inactive)

Item CC(C)CNC(=O)c1c(NC(=O)c2ccccc2)sc2[nH]c(=O)n(-c3ccccc3)c(=O)c12 has what recorded GI50? > 64 µM (inactive)
